tested on: primary acute myeloid leukemia (AML) cells obtained from patients; assay: Kinase inhibitor library screening with and without NSC130362, primary AML cells; format: cell-based, Human; conditions: ratio of EC50 for inhibitor to EC50 for inhibitor/NSC130362 combination; NSC130362 10 μM; Screen N 3
Below is a list of entries, each paired with its recorded EC50 decrease, fold (Screen N 3) value.
Respond numerically; units are fold and should not be typed.

Compound | Assay endpoint | Measured
O=C(O)c1ccc(Nc2ncc3c(n2)-c2ccc(Cl)cc2C(c2c(F)cccc2F)=NC3)cc1 | EC50 decrease, fold (Screen N 3) | 0.001
COc1cc(Oc2ccnc3cc(OC)c(OC)cc23)ccc1NC(=O)NC(C)c1nccs1 (stereo not shown) | EC50 decrease, fold (Screen N 3) | 1.0
CCOc1cc2ncc(C#N)c(Nc3ccc(OCc4ccccn4)c(Cl)c3)c2cc1NC(=O)/C=C/CN(C)C | EC50 decrease, fold (Screen N 3) | 1.0

q: Which EC50 decrease, fold (Screen N 3) reading was recorded for the compound Cc1[nH]nc2ccc(-c3cncc(OC[C@@H](N)Cc4ccccc4)c3)cc12 ?
a: 6.2
